Just for reference, patent US20250195685A1 is where these values come from.

Documented pKd across a set of binders
# system: T1, human CD8αα homodimer, recombinant protein (Acro Biosystems) (human, UniProt P01732 22-182)
# T1 construct: also called CD8αα antigen; biotinylated CD8α recombinant protein (CDA-H82E3)
# T1 sequence (P01732 22-182 limits assumed): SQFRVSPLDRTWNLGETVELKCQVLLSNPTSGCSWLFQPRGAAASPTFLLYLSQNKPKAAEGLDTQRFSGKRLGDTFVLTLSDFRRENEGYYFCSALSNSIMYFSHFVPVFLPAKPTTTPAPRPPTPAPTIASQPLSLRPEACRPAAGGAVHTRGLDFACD
# measurement description: BLI kinetics, F(ab) on biotinylated CD8α (SA-XT sensor), 1:1 fit, 37 °C [CONT'ED]
For clarity, pKd is expressed as the negative log10 of concentration in mol/L.

CBD1017ch Fab (chimeric CT8 Fab) (Fab, V domains shown, Chimeric: variable regions of mouse CT8 (clone RPA-T8) with human constant parts; also called parental CBD1017ch Fab) VH: EVQLQQSGPELVKPGASVKISCKASRYTFTDYNLHWVKLSHEKSLEWIGFIYPYNGGTGYNQKFKNKAKLTVDYSSSTAYMELRSLTSVDAAVYYCARDHRYNEGVSFDYWGQGTTLTVSS VL: NIVLTQSPASLAVSLGQRATISCRASESVDGFGNSFMNWYQQKPGQSPKLLIYLASNLESGVPARFSGSGSRTDFTLTIDPVEADDAATYYCQQNNEDPYTFGGGTKLEIK; 8.97
CBD1037 (Fab, V domains shown, also called h1017-H4/L2 F(ab)) VH: QVQLVQSGAEVKKPGASVKVSCKASRYTFTDYNLHWVRQAPGQGLEWMGFIYPYNGGTGYAQKFQGRVTMTVDYSTSTAYMELSSLRSEDTAVYYCARDHRYNEGVSFDYWGQGTTVTVSS VL: DIQLTQSPSSLSASVGDRATITCRASESVDGFGNSFMNWYQQKPGKAPKLLIYLASNLESGVPSRFSGSGSGTDFTLTISSVQPEDFATYYCQQNNEDPYTFGQGTKLEIK; 8.90

From here, focus on the item given below.
# input Form field: reported pKd of CBD1040 (Fab, V domains shown, also called h1017-H5/L3 F(ab)) VH: QVQLVQSGAEVKKPGASVKISCKASRYTFTDYNLHWVRQAPGQGLEWIGFIYPYNGGTGYAQKFQGRATLTVDYSTSTAYMELSSLRSEDTAVYYCARDHRYNEGVSFDYWGQGTTLTVSS VL: DIQLTQSPSSLSASVGDRATITCRASESVDGFGNSFMNWYQQKPGKAPKLLIYLASNLESGVPSRFSGSGSRTDFTLTISSVQPEDFATYYCQQNNEDPYTFGQGTKLEIK
# output 8.13
